// data source = PubChem BioAssay

inhibition overview
Test: TR-FRET optical interference artefacts, confirmation, artefact control for LEDGF/p75-dependent integration inhibitor project, biochemical, HIV-1 IN multimerization (AID 1053135);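 note: 0% = integrase with antibodies and DMSO and 100% = antibodies without integrase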
Settings: TR-FRET optical interference counterscreen, at 7.7 µM, hits give high values
Some of the results follow.
Please give a number only; it is taken to be in %.

Below, 2 molecules whose answers are already recorded.
{"structureSmiles": "Cc1cc(/C=C2/C(=O)NC(=O)N(Cc3ccco3)C2=O)c(C)n1-c1ccc(C(=O)O)cc1", "recordedValue": -26.4}
{"structureSmiles": "CCOC(=O)c1c(N)n(Cc2ccccc2)c2nc3ccccc3nc12", "recordedValue": 2.59}

Input `CCOc1cccc(=NC2CCCCC2)c2c(C)[nH]c(C)c12` , output reported inhibition.
-0.97

Input `Cc1c(C(=O)O)cccc1-n1c(C)cc(/C=C2\C(=O)NC(=O)N(c3ccc4c(c3)OCO4)C2=O)c1C` , output reported inhibition.
-0.77

====

Target: Steroidogenic factor 1 (Homo sapiens)
Test: SF1 (NR5A1) inverse agonists, counter-screen for LRH-1 inverse agonist project, cell-based, luminescence, high throughput (AID 651614);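 note: cells cotransfected with StAR promoter reporter and SF1 expression vector; 0% = vehicle on cells with receptor and 100% = vehicle on cells lacking receptor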
Conditions: cell-based SF1 luciferase reporter, at 3.6 µM, hits give high values
Please mark YES if the recorded inhibition is equal to or greater than 90%, and NO if it falls below.

A selection of reference data follows.
{"molecule": "C[C@]12CC[C@H](O)C[C@H]1CC[C@@H]1[C@@H]2CC[C@]2(C)[C@@H](C3=CC(=O)OC3)CC[C@]12O", "group": "YES"}
{"molecule": "CCOc1ccc(-c2cc(C)[n+](CCN(CC)CC)c(-c3ccc(OCC)cc3)c2)cc1", "group": "YES"}
{"molecule": "C1=NCCc2c1[nH]c1ccccc21", "group": "NO"}
{"molecule": "COC1=C(C)C(=O)C2=C(C1=O)C(CO)N1C(C#N)C3CC4C(C1C2N1CCOC41)N3C (stereo unspecified)", "group": "YES"}

Here is the next item to consider.
Please tell me: is the molecule `Cc1ccc(-c2cc(-c3ccc(C)cc3)[n+](C)o2)cc1` at or over 90% in terms of inhibition?
NO

====

Assay: VP16 transactivation inhibitors, counter-screen for SRC1 inhibitor project, cell-based, luminescence, high throughput (AID 588824)
Settings: cell-based VP16 transactivation luciferase luminescence; at 3.6 µM; hits give high values
inhibition overview
Please give a number only; it is taken to be in %.

Below, 5 compounds whose answers are already recorded.
{"compound": "CC(=O)OC1CC2(O)C3CCC4CC(O)CCC4(C)C3CCC2(C)C1C1=CC(=O)OC1 (stereo unspecified)", "inhibition [%]": 83.3}
{"compound": "COc1cc2c(cc1OC)C1C(=O)c3ccc4c(c3OC1CO2)CC(C(C)C)O4 (stereo unspecified)", "inhibition [%]": 41.4}
{"compound": "CC(=O)OC1CC2OC3C=C(C)CCC3(C)C1(C)C21CO1 (stereo unspecified)", "inhibition [%]": 95.1}
{"compound": "CCCCCCCCCCCCn1ccc(=N)cc1", "inhibition [%]": 78.9}
{"compound": "CC1CC(C)(O)CC(C(O)CC2CC(=O)NC(=O)C2)C1=O (stereo unspecified)", "inhibition [%]": 94.9}

From here, focus on the item given below.
Input CCC1(OC(=O)CN)C(=O)OCc2c1cc1n(c2=O)Cc2cc3ccccc3nc2-1 (stereo unspecified) , output reported inhibition.
77.3

====

Assay: VP16 transactivation reporter inhibitors, counter-screen for LRH-1 inverse agonist project, cell-based, luminescence, high throughput (AID 651615)
Settings: Gal4-VP16 luciferase reporter cells, at 3.6 µM
Calls of active or inactive are those of the source. Cut-off read from the data, not from the text of the source: active = inhibition above about 33%; inactive = the rest.
A correct response names exactly one class from true (1) for active, false (0) for inactive

{"compound": "CC[n+]1c(/C=C/C=C/c2ccc(N(C)C)cc2)sc2ccccc21", "group": "true (1)"}
{"compound": "C[C@H]1[C@@H](OS(=O)(=O)O)C[C@@H]2C[C@H]([C@@H](O)c3cc(=O)[nH]c(=O)[nH]3)NC3=NC[C@H]1N32", "group": "true (1)"}
{"compound": "COc1cc2nc(CN3CC=C(c4ccccc4)CC3)[nH]c(=O)c2cc1OC", "group": "true (1)"}

Could you check what this test reported for COC(=O)C12CCc3c(ccc4cc(OC)ccc34)C1=CC(=O)C2 (centres undefined) ?
false (0)

Could you check what this test reported for CC(=O)OC1(C)CC(C)C(=O)C(C(O)CC2CC(=O)NC(=O)C2)C1 (centres undefined) ?
true (1)

Could you check what this test reported for N#Cc1cn(C2OC(CO)C(O)C2O)c2ncnc(N)c12 (centres undefined) ?
true (1)

Could you check what this test reported for `Cc1ccccc1-[n+]1c(-c2ccccc2)cc(-c2ccccc2)cc1-c1ccccc1` ?
true (1)

Could you check what this test reported for CC1C(OC(=O)CCC(=O)NC(C)(C)CO)O[C@H]2OC3(C)CC[C@H]4[C@H](C)CCC1C24OO3 (some centres undefined) ?
true (1)

Could you check what this test reported for CC12CCC(O)CC1CCC1C2CCC2(C)C(C3=CC(=O)OC3)C(O)CC12O (centres undefined) ?
true (1)

====

inhibition overview
Molecular target: Steroidogenic factor 1 (Homo sapiens) (UniProt Q13285)
Sequence (Q13285 whole entry, looked up): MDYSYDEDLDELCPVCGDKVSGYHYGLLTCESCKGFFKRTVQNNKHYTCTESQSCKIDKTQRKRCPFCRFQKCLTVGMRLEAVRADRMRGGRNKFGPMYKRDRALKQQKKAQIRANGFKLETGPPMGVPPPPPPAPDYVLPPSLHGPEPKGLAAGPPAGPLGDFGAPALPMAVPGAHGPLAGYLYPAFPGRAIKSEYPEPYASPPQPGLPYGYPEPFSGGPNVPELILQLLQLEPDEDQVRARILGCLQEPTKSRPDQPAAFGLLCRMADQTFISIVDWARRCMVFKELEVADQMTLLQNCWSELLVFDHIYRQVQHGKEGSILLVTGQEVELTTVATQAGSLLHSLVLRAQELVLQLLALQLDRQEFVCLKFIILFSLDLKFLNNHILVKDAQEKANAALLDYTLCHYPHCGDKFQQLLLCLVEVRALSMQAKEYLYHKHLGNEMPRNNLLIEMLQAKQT
Assay: SF1 (NR5A1) inverse agonists, counter-screen for LRH-1 inverse agonist project, cell-based, luminescence, high throughput (AID 651614);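 note: cells cotransfected with StAR promoter reporter and SF1 expression vector; 0% = vehicle on cells with receptor and 100% = vehicle on cells lacking receptor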
Conditions: cell-based SF1 luciferase reporter, at 3.6 µM, hits give high values
Please give a number only; it is taken to be in %.

{"compound": "CC[n+]1c(-c2ccccc2)c2cc(N)ccc2c2ccc(N)cc21", "recordedValue": 77.7}
{"compound": "C[C@@H]1O[C@@H](O[C@H]2C[C@@H](O)[C@]3(CO)[C@H]4[C@H](O)C[C@]5(C)[C@@H](C6COC(=O)C6)CC[C@]5(O)[C@@H]4CC[C@]3(O)C2)[C@H](O)[C@H](O)[C@H]1O (stereo not given in full)", "recordedValue": 87.3}
{"compound": "N#Cc1cn(C2OC(CO)C(O)C2O)c2ncnc(N)c12 (stereo not given)", "recordedValue": 94.1}
{"compound": "COC(=O)COc1cc(C)cc2oc(=O)c3c(c12)CCCC3", "recordedValue": 50.6}

From here, focus on the item given below.
Input `CCN1/C(=C/C=C/C2=[N+](CC)c3ccccc3C2(C)C)C(C)(C)c2ccccc21` , output reported inhibition.
96.1

====

inhibition overview
Experiment: VP16 transactivation reporter inhibitors, counter-screen for LRH-1 inverse agonist project, cell-based, luminescence, high throughput (AID 651615)
Settings: Gal4-VP16 luciferase reporter cells, at 3.6 µM, hits give high values
Please give a number only; it is taken to be in %.

Below, 5 compounds whose answers are already recorded.
{"compound": "CC1=C(O)C(=O)C=C2C1=CC=C1C2(C)CCC2(C)C3CC(C)(C(=O)O)CCC3(C)CCC12C (stereo not drawn)", "inhibition [%]": 89.5}
{"compound": "CC1CC(C)CC(C)C(O)C(C#N)=CC=CCC(C2CCCC2C(=O)O)OC(=O)CC(O)C(C)C1 (stereo not drawn)", "inhibition [%]": 98.7}
{"compound": "CC(=O)OC1CC(OC2C(O)CC(OC3C(O)CC(OC4CCC5(C)C(CCC6C5CCC5(C)C(C7=CC(=O)OC7)C(O)CC65O)C4)OC3C)OC2C)OC(C)C1OC1OC(CO)C(O)C(O)C1O (stereo not drawn)", "inhibition [%]": 85.1}
{"compound": "CC1OC(OC2CC(O)C3(CO)C4C(O)CC5(C)C(C6=CC(=O)OC6)CCC5(O)C4CCC3(O)C2)C(O)C(O)C1O (stereo not drawn)", "inhibition [%]": 93.5}
{"compound": "CC(=O)OC[C@]12CCC(C)=C[C@H]1O[C@@H]1[C@H](O)[C@@H](OC(C)=O)[C@@]2(C)[C@]12CO2", "inhibition [%]": 97.1}

Input `Cc1cc(-c2ccccc2)cc(-c2ccccc2)[n+]1CCc1ccccc1` , output reported inhibition.
73.2

Input COc1ccc(CC2NCC(O)C2OC(C)=O)cc1 (stereo not drawn) , output reported inhibition.
96.1

Input `CCOC(=O)[C@]12Cc3cc(C)ccc3[C@H]1N(C1CCCCC1)C(=O)c1cc(OC)ccc12` , output reported inhibition.
87.9

====

Target: Nuclear receptor coactivator 3 (Homo sapiens) (UniProt Q9Y6Q9)
Sequence (Q9Y6Q9 whole entry, looked up): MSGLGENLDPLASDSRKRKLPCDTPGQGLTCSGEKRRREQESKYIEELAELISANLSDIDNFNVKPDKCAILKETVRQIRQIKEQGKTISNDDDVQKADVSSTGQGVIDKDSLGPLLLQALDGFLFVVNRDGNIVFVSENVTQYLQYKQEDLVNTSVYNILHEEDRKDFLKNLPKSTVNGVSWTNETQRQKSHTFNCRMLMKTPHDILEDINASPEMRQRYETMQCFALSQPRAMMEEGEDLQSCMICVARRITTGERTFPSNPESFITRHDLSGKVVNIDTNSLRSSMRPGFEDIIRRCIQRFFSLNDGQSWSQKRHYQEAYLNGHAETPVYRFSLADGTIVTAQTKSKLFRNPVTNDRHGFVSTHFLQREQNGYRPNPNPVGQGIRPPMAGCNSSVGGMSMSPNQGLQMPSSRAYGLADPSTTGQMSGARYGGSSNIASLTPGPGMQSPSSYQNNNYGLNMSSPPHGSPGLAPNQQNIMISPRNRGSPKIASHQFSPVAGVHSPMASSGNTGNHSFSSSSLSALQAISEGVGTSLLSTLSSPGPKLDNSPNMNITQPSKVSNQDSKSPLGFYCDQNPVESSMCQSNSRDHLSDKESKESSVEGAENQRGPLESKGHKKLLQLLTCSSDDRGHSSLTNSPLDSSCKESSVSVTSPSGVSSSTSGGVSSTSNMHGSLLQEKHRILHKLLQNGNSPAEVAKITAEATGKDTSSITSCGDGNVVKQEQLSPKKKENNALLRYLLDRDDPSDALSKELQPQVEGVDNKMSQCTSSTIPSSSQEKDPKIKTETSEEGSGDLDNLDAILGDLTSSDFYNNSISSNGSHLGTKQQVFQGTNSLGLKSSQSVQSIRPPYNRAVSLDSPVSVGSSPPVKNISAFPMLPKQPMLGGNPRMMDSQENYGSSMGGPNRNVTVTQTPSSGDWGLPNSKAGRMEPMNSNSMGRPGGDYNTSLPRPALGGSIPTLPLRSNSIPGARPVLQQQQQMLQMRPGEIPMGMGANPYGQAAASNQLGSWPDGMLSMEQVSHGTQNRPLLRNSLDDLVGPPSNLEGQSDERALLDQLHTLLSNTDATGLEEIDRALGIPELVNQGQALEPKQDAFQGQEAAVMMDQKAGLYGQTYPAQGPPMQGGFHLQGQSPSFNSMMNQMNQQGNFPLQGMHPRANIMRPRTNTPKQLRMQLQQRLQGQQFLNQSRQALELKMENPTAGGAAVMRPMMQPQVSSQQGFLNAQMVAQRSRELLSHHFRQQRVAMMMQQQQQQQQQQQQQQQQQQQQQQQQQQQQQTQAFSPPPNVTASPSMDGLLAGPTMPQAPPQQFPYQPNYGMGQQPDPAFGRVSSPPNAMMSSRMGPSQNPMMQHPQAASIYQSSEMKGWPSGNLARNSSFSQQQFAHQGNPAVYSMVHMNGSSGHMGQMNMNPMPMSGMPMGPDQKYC
Assay: SRC3 coactivator transcriptional activity inhibitors, confirmation, cell-based, luminescence, quadruplicate (AID 588792);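 note: 0% = DMSO treated cells and 100% = gossypol at 36 µM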
Conditions: HEK293 GAL4-SRC3 luciferase reporter, at 3.6 µM
Calls of active or inactive are those of the source.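 How the source made its calls: active means mean inhibition over 43.08%, the solvent-only control mean plus 3 SD; inactive means the rest.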
A correct response names exactly one class from yes (1) (active), no (0) (inactive)

{"molecule": "COC(=O)C[C@]1(C(=O)OC)CN(C#N)N(c2ccc(Cl)cc2)C12c1ccccc1-c1ccccc12", "group": "no (0)"}
{"molecule": "CC(C)(O)/C=C/C(=O)C(C)(O)C1C(O)CC2(C)C3CC=C4C(C=C(O)C(=O)C4(C)C)C3(C)C(=O)CC12C (centres undefined)", "group": "yes (1)"}
{"molecule": "Cc1cccc(C)c1-n1nnnc1C(c1cc2ccccc2o1)N1CCC(n2c(=O)[nH]c3ccccc32)CC1 (centres undefined)", "group": "no (0)"}

Could you check what this test reported for `CCCCNS(=O)(=O)c1ccc(OCC(=O)N2CCN(Cc3ccc4c(c3)OCO4)CC2)cc1` ?
no (0)
